Where do these numbers come from? They come from patent US11099176B2.

- TEST TARGET: Marinobacter sp. msLacBP6 variant Y187C, C-terminal βZif fusion, SEQ ID NO: 61, Acrylodan and βZif 5IAF (Fluorescein) conjugate
- EXPERIMENT: Fluorescence titration of doubly labeled conjugate (ngmFRET)
- Assay type: binding
- MEASUREMENT CONDITIONS: read-out: appKd (lactate), λ1 452, λ2 520 nm
PARAMETER: Kd (µM)
Answer with a number only, understood to be in µM.

# lookup: Kd of C[C@H](O)C(=O)O [lactate]
300

---

- TEST TARGET: Marinobacter sp. msLacBP6 variant 187C, L70I, SEQ ID NO: 52, Acrylodan conjugate
- EXPERIMENT: Fluorescence titration of conjugate (affinity tuning)
- Format: binding
- MEASUREMENT CONDITIONS: read-out: trueKd (lactate); λ1 452, λ2 582 nm
PARAMETER: Kd (µM)
Answer with a number only, understood to be in µM.

# lookup: Kd of C[C@H](O)C(=O)O [lactate]
300

---

- TEST TARGET: Marinobacter sp. msLacBP6 variant 187C, F68L, SEQ ID NO: 49, Badan conjugate
- EXPERIMENT: Fluorescence titration of conjugate (affinity tuning)
- Format: binding
- MEASUREMENT CONDITIONS: read-out: trueKd (lactate); λ1 463, λ2 535 nm
PARAMETER: pKd
The value called pKd is obtained by taking minus log10 of the concentration in mol/L.

# lookup: pKd of C[C@H](O)C(=O)O [lactate]
3.40

---

- TEST TARGET: Marinobacter sp. msLacBP6 variant Y187C, C-terminal βZif fusion, SEQ ID NO: 61, Acrylodan and βZif Alexa532 conjugate
- EXPERIMENT: Fluorescence titration of doubly labeled conjugate (ngmFRET)
- Assay type: binding
- MEASUREMENT CONDITIONS: read-out: appKd (lactate), λ1 452, λ2 550 nm
PARAMETER: pKd
The value called pKd is obtained by taking minus log10 of the concentration in mol/L.

# lookup: pKd of C[C@H](O)C(=O)O [lactate]
3.40

---

- TEST TARGET: Marinobacter sp. msLacBP6 variant 187C, L70M, SEQ ID NO: 53, Badan conjugate
- EXPERIMENT: Fluorescence titration of conjugate (affinity tuning)
- Format: binding
- MEASUREMENT CONDITIONS: read-out: appKd (lactate); λ1 459, λ2 539 nm
PARAMETER: Kd (µM)
Answer with a number only, understood to be in µM.

# lookup: Kd of C[C@H](O)C(=O)O [lactate]
1100

---

- TEST TARGET: Marinobacter sp. msLacBP6 variant Y187C, C-terminal βZif fusion, SEQ ID NO: 61, Acrylodan and βZif 5IAF (Fluorescein) conjugate
- EXPERIMENT: Fluorescence titration of doubly labeled conjugate (ngmFRET)
- Type: binding
- MEASUREMENT CONDITIONS: read-out: trueKd (lactate), λ1 452, λ2 520 nm
PARAMETER: pKd
The value called pKd is obtained by taking minus log10 of the concentration in mol/L.

# lookup: pKd of C[C@H](O)C(=O)O [lactate]
3.52

---

- TEST TARGET: Marinobacter sp. msLacBP6 variant 187C, L70I, SEQ ID NO: 52, Badan conjugate
- EXPERIMENT: Fluorescence titration of conjugate (affinity tuning)
- Assay type: binding
- MEASUREMENT CONDITIONS: read-out: appKd (lactate); λ1 460, λ2 537 nm
PARAMETER: Kd (µM)
Answer with a number only, understood to be in µM.

# lookup: Kd of C[C@H](O)C(=O)O [lactate]
300
